Provenance of the data: the supplement of paper PMC11208160

- protocol.text: recombinant UMI read abundance after kanamycin selection (control-corrected) (log10(CPM+1)); higher = more efficient recombination; extreme values may be limits of the assay; sequences stand for … in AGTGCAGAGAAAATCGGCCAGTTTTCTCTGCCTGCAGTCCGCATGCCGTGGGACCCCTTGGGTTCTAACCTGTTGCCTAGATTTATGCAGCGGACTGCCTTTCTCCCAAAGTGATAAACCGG…AGGTTGGTTTCACT; site = the 11-nt donor;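 note: IS621 bridge recombinase in Escherichia coli cells against a fixed T5 target plasmid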
Quick rule for you: recombinant UMI read abundance (log10) at 0.4 or higher means yes (1), lower means no (0).

Take a look at these entries with their results.
CCCCACACATGGACCGGTTTTCCCGGTAATCCGTATTTGTT (site CCCCACACTGA): no (0)
CGCCTTACATGGACCGGTTTTCCCGGTAATCCGTATTTGCT (site CGCCATACTAG): no (0)
ATGCGTTCATGGACCGGTTTTCCCGGTAATCCGTATTTGGG (site ATGCGTTCTCC): yes (1)

In the following, a different sequence is considered.
Query :: Check if recombinant UMI read abundance (log10) >= 0.4 (inclusive). Item: CGGGACGCATGGACCGGTTTTCCCGGTAATCCGTATTTGTA (site CGGGACGCTTA)
Result :: yes (1)
